Recorded viability for the following molecules
Test: growth suppression of beta-catenin knockout HCT116, pilot screen, human colon tumor cells (AID 823);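 note: 0% = wells killed by 20 µM Hyamine and 100% = untreated DMSO cell wells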
Details: CellTiter-Glo, 60 h, at 10 µM, hits give low values
Records with an inconclusive call do not appear.

>  <Molecule>
COC(=O)C(Cc1ccccc1)NC(=O)CSc1nc(C)cc(=O)[nH]1 (centres undefined)

>  <viability / %>
101

$$$$
>  <Molecule>
COc1ccc(N=C(N(C)C)P(=O)(N(C)C)N(C)C)cc1

>  <viability / %>
103

$$$$
>  <Molecule>
CCC(=O)N=c1sc2cc(F)cc(F)c2n1C

>  <viability / %>
93.4

$$$$
>  <Molecule>
CCN1C(=S)SC(=O)C1=C1C=C(C)OC(C)=C1

>  <viability / %>
91.9

$$$$
>  <Molecule>
CCN(CC)CCCNC(=O)c1cc(-c2ccc(O)cc2)on1

>  <viability / %>
99.1

$$$$
>  <Molecule>
CCn1c(O)c(C2=NCCCC2)c2ccccc21

>  <viability / %>
95

$$$$
>  <Molecule>
CSc1nnc(NC(=O)C2CCCCC2)s1

>  <viability / %>
97

$$$$
>  <Molecule>
COc1ccc(C2C(C#N)=C(N)Oc3n[nH]c(C)c32)cc1Cn1nnc2ccccc21 (centres undefined)

>  <viability / %>
75.7

$$$$
>  <Molecule>
O=C(c1cc(-c2cccc(O)c2)on1)N1CCc2ccccc2C1

>  <viability / %>
114

$$$$
>  <Molecule>
Cc1cc(NC(=O)CN2CCN(c3ncccn3)CC2)no1

>  <viability / %>
98.6

$$$$
>  <Molecule>
Cc1ccc2oc(=O)c3cnn(CC(=O)NCCCOC(C)C)c3c2c1

>  <viability / %>
106

$$$$
>  <Molecule>
O=C(NCc1ccc2c(c1)OCO2)C1CC(=O)N(CCc2ccccc2)C1 (centres undefined)

>  <viability / %>
96.1

$$$$
>  <Molecule>
CCCc1nc2sc3c(SCC(=O)NCc4ccco4)ncnc3c2c2c1CCC2

>  <viability / %>
47.4

$$$$
>  <Molecule>
Cc1nn(CCO)c(C)c1Oc1ccccc1O

>  <viability / %>
102

$$$$
>  <Molecule>
CCC(=O)c1cn(CC(=O)NCC2CCCO2)c2ccccc12 (centres undefined)

>  <viability / %>
96.7

$$$$
>  <Molecule>
Cc1ccc(C)c(SCC(=O)OCC(=O)c2ccco2)c1

>  <viability / %>
88.9

$$$$
>  <Molecule>
CC(C)CC(NC(=O)c1ccco1)C(=O)Nc1ccc2c(c1)OCCO2 (centres undefined)

>  <viability / %>
104

$$$$
>  <Molecule>
O=C(Nc1nc2c(s1)CCCC2)c1ccc2ncsc2c1

>  <viability / %>
68.4

$$$$
>  <Molecule>
CCN(CC)CCOc1c(Br)ccc2c1sc1nc3n(c(=O)c12)CCC3

>  <viability / %>
30.4

$$$$
>  <Molecule>
O=C(NC(C(=O)c1ccccc1)N1CCCCC1)c1ccccc1 (centres undefined)

>  <viability / %>
91.2

$$$$
>  <Molecule>
COCCCNC(=O)c1ccc(Cn2c(=O)[nH]c3ccccc3c2=O)cc1

>  <viability / %>
34.9

$$$$
>  <Molecule>
CCOC(=O)Cc1csc(SCn2nnc3ccccc3c2=O)n1

>  <viability / %>
94.8

$$$$
>  <Molecule>
CCc1n[nH]c2c1/C(=N\O)CC(C)(C)C2

>  <viability / %>
99.4

$$$$
>  <Molecule>
C(=N\n1cnnc1)/c1ccc(N2CCOCC2)s1

>  <viability / %>
89.8

$$$$

###

Assay: viability gain of MRP-1-high H69AR cells under doxorubicin, pilot screen, MRP-1 activator project, CellTiter-Glo, duplicate (AID 807);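 note: compound pretreatment 18-22 h then 72 h combined with doxorubicin; 0% = doxorubicin alone and 100% = vehicle without doxorubicin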
Conditions: H69AR viability with doxorubicin, CellTiter-Glo luminescence; at 10 µM; hits give high values
Here the recorded viability increase is given for each entry.

>  <Compound>
COc1ccccc1C(=O)Nc1nnn(C)n1

>  <Unit Text>
%

>  <viability increase>
-0.45

$$$$
>  <Compound>
COc1ccc(-c2nnc(NC(=O)c3ccccc3C)o2)cc1

>  <Unit Text>
%

>  <viability increase>
-2.73

$$$$
>  <Compound>
O=C(Cn1nc(Cc2cccnc2)c2ccccc2c1=O)N1CCN(C(=O)c2ccco2)CC1

>  <Unit Text>
%

>  <viability increase>
-0.74

$$$$
>  <Compound>
Cc1ccnc(Nc2nc3ccccc3o2)n1

>  <Unit Text>
%

>  <viability increase>
-4.36

$$$$
>  <Compound>
CC(=O)N(CCCc1ccc(C(C)(C)C)cc1)CCCN(C)C

>  <Unit Text>
%

>  <viability increase>
-5.16

$$$$
>  <Compound>
c1cncc(-c2nnc(SCc3cccc4ccccc34)o2)c1

>  <Unit Text>
%

>  <viability increase>
-0.01

$$$$
>  <Compound>
CSC1=NCCN1C(=O)c1ccc(S(=O)(=O)N2CCOCC2)cc1

>  <Unit Text>
%

>  <viability increase>
-1.31

$$$$
>  <Compound>
Cc1oc(-c2cccs2)nc1CS(=O)CC(=O)NCCCN1CC(C)CC(C)C1 (configuration not stated)

>  <Unit Text>
%

>  <viability increase>
-1.75

$$$$
>  <Compound>
COc1ccccc1NC(=O)C1=C(C)NC(=O)NC1c1cccc(OC)c1OC (configuration not stated)

>  <Unit Text>
%

>  <viability increase>
-2.1

$$$$
>  <Compound>
COC(=O)NCC(c1cccnc1)N1CCN(c2ccccc2)CC1 (configuration not stated)

>  <Unit Text>
%

>  <viability increase>
0.41

$$$$
>  <Compound>
CN(C)/C=C1/Sc2ccccc2C1=O

>  <Unit Text>
%

>  <viability increase>
-3.51

$$$$
>  <Compound>
CCSc1nc2ccccc2n1CC(=O)N1CCOCC1

>  <Unit Text>
%

>  <viability increase>
-3.2

$$$$

###

Assay: growth suppression of PTEN-deleted HCT116, pilot screen, cell-based, HCT116 clonal line, CellTiter-Glo (AID 824);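 note: 0% = 20 µM Hyamine control and 100% = vehicle cell control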
Details: 60 h, at 10 µM, hits give low values
Results filed as inconclusive are left out.
Some molecules, each annotated with its measured viability.

>  <Molecule>
CCCC(NS(=O)(=O)c1ccc(Br)cc1)C(=O)O (stereo unspecified)

>  <viability [%]>
99.3

$$$$
>  <Molecule>
Cc1nc(SCC(=O)Nc2cccc(Cl)c2)n[nH]1

>  <viability [%]>
97.7

$$$$
>  <Molecule>
CCCC(=O)c1cc(F)c(N2CCN(CCC#N)CC2)cc1C

>  <viability [%]>
93.6

$$$$
>  <Molecule>
COc1ccc(C2OC(=O)CC2C(=O)N2CCN(c3cc(Cl)ccc3C)CC2)cc1OC (stereo unspecified)

>  <viability [%]>
95.5

$$$$
>  <Molecule>
CC(=O)c1ccc(NC(=O)C2CCCN2S(=O)(=O)c2ccc(F)cc2)cc1 (stereo unspecified)

>  <viability [%]>
96.2

$$$$
>  <Molecule>
CC(NC(=O)Cn1cc2c(n1)CCCCC2)c1ccccc1 (stereo unspecified)

>  <viability [%]>
100

$$$$

###

Molecular target: Receptor tyrosine-protein kinase erbB-2 (Homo sapiens)
Assay: reducers of endogenous Her2 protein level, primary screen, SKBR3 breast tumor cells, AlphaScreen, ATP viability (AID 461);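 note: lower value means less Her2 protein in the cells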
Details: 18-24 h, at 10 µM, hits give low values
Peptide text beside a SMILES is read from it. * marks the point of attachment. Boc = CC(C)(C)OC(=O)*
// Her2 level lookup, one value per entry
Test Readout: Her2 level (%)

>  <Molecule>
O=C(CSc1nnc(-c2ccc(Br)o2)n1Cc1ccccc1)c1ccccc1F

>  <Experimental Result>
91

$$$$
>  <Molecule>
Cc1ccc(-n2nc(-c3cccs3)cc2C(=O)NCC2CCCO2)c(C)c1 (centres undefined)

>  <Experimental Result>
100

$$$$
>  <Molecule>
COc1cc(C2c3c(oc4c(C)cc(C)cc4c3=O)C(=O)N2Cc2cccnc2)cc(OC)c1OC (centres undefined)

>  <Experimental Result>
114

$$$$
>  <Molecule>
N#CC1=C(SCC(=O)c2cc3ccccc3oc2=O)NC(=O)C(C#N)C12CCCC2 (centres undefined)

>  <Experimental Result>
76

$$$$
>  <Molecule>
c1ccc(-c2nnc(CN3CCC4(CC3)OCCO4)o2)cc1

>  <Experimental Result>
91.5

$$$$
>  <Molecule>
COc1ccc([C@@H]2Sc3ccccc3N(CCN(C)C)C(=O)[C@@H]2OC(C)=O)cc1

>  <Experimental Result>
106

$$$$
>  <Molecule>
COc1ccc(S(=O)(=O)N2CCC(C(=O)c3ccc4c(c3)OCCO4)CC2)cc1

>  <Experimental Result>
108

$$$$
>  <Molecule>
CCOC(=O)c1[nH]c2ccccc2c1NC(=O)C(CC)CC

>  <Experimental Result>
99.5

$$$$
>  <Molecule>
O=C(CS(=O)CC(=O)Nc1cccc2c1CCCC2)Nc1ccc(F)cc1 (centres undefined)

>  <Experimental Result>
103

$$$$
>  <Molecule>
O=C(NCCCN1CCN(CCCNC(=O)c2ccc(F)cc2)CC1)c1ccc(F)cc1

>  <Experimental Result>
98

$$$$
>  <Molecule>
CCOc1ccc2[nH]c(=O)c(CN(CCOC)C(=O)N3CCOCC3)cc2c1

>  <Experimental Result>
90

$$$$
>  <Molecule>
CCCNS(=O)(=O)c1ccc(OCC(=O)NCc2ccc3c(c2)OCO3)cc1

>  <Experimental Result>
89.5

$$$$
>  <Molecule>
CN(C)c1ccc(CNn2cnnc2)cc1

>  <Experimental Result>
88.5

$$$$
>  <Molecule>
CCOc1ccccc1C(=O)NC(C)c1ccc2c(c1)OCO2 (centres undefined)

>  <Experimental Result>
99

$$$$
>  <Molecule>
Cc1ccc(NC(=O)CNc2cccc(C)c2C)c(C)c1

>  <Experimental Result>
86.5

$$$$
>  <Molecule>
CN(C)/C=C(\C#N)c1nc2ccccc2[nH]1

>  <Experimental Result>
90

$$$$
>  <Molecule>
O=C(CCC(=O)OCCCC(F)(F)C(F)(F)F)NC1CCCCC1

>  <Experimental Result>
112

$$$$
>  <Molecule>
N#CC1=C(SCC(=O)NC2CCCCC2)NC(=O)CC1c1ccco1 (centres undefined)

>  <Experimental Result>
98

$$$$
>  <Molecule>
CCOC(=O)c1cc2n(n1)C(C(F)(F)C(F)(F)F)CC(C)N2 (centres undefined)

>  <Experimental Result>
93.5

$$$$
>  <Molecule>
CCOC(=O)C1=C(CC)Nc2ccccc2N=C1NC(=O)Cn1cnc2ccccc2c1=O

>  <Experimental Result>
80.5

$$$$
>  <Molecule>
Cc1nc2cc(Cl)ccc2n1CCO

>  <Experimental Result>
95.5

$$$$
>  <Molecule>
COC(=O)c1[nH]c2cc(OC)ccc2c1NC(=O)CCN1CCCCC1

>  <Experimental Result>
114

$$$$
>  <Molecule>
COCC(=O)N(c1ccc(C(C)C)cc1)C1C=CS(=O)(=O)C1 (centres undefined)

>  <Experimental Result>
80

$$$$
>  <Molecule>
COc1ccc(N2CC(C(=O)Nc3ccc(F)cc3F)CC2=O)cc1 (centres undefined)

>  <Experimental Result>
93.5

$$$$
>  <Molecule>
COc1cc(C2C(C(=O)c3ccc(C)o3)=C(O)C(=O)N2c2cc(C)on2)cc(Br)c1O (centres undefined)

>  <Experimental Result>
93

$$$$
>  <Molecule>
OCc1cn(-c2ccccc2)nc1-c1ccc2c(c1)OCCO2

>  <Experimental Result>
102

$$$$
>  <Molecule>
COc1ccc(C)cc1S(=O)(=O)N1CCN(Cc2ccccc2)CC1

>  <Experimental Result>
94.5

$$$$
>  <Molecule>
O=C(NCc1cccnc1)C1CCCN(S(=O)(=O)c2ccc(Cl)cc2)C1 (centres undefined)

>  <Experimental Result>
96

$$$$
>  <Molecule>
Cc1c(C(=O)O)sc2nc3n(c(=O)c12)CCC(C)CC3 (centres undefined)

>  <Experimental Result>
87

$$$$
>  <Molecule>
CCC(C)NC(=O)C1(C)CCC(=O)N1CCc1ccc(OC)c(OC)c1 (centres undefined)

>  <Experimental Result>
95

$$$$
>  <Molecule>
O=C(Nc1nc(-c2ccccc2)cs1)C1CCCCN1S(=O)(=O)c1ccccc1 (centres undefined)

>  <Experimental Result>
80

$$$$
>  <Molecule>
c1ccc(-c2nnc(-c3ccco3)n2-c2ccccc2)cc1

>  <Experimental Result>
78

$$$$
>  <Molecule>
CCC(C)(C(=O)NC1CCCC1)N(C(=O)c1cnccn1)c1c(C)n(C)n(-c2ccccc2)c1=O (centres undefined)

>  <Experimental Result>
124

$$$$
>  <Molecule>
NC(N)=NS(=O)(=O)c1ccc(N)cc1

>  <Experimental Result>
105

$$$$
>  <Molecule>
CS(=O)(=O)N(CC(=O)O)c1cccc(Cl)c1

>  <Experimental Result>
120

$$$$
>  <Molecule>
CC1CCCCC1NC(=O)CN1CCN(Cc2ccccc2Cl)C1=O (centres undefined)

>  <Experimental Result>
97

$$$$
>  <Molecule>
CCCCSCCCNC(=O)CS(=O)Cc1nc(-c2cccc(C)c2)oc1C (centres undefined)

>  <Experimental Result>
76

$$$$
>  <Molecule>
CC(C)(C)OC(=O)N1CCCC1C(=O)NC(Cc1ccccc1)C(=O)O (stereo not drawn) (Boc-Pro-Phe-OH; configuration not given here)

>  <Experimental Result>
102

$$$$
>  <Molecule>
CC(C(=O)Nc1ccccc1-c1ccccc1)N1CCN(C(=O)c2ccco2)CC1 (centres undefined)

>  <Experimental Result>
95

$$$$
>  <Molecule>
O=C(Nc1ccc(CN2CCOCC2)cc1)c1cc2ccccc2oc1=O

>  <Experimental Result>
88

$$$$
>  <Molecule>
Cc1onc(-c2ccccc2)c1C(=O)N[C@@H]1C(=O)N2[C@@H]1SC(C)(C)[C@@H]2C(=O)O

>  <Experimental Result>
100

$$$$
>  <Molecule>
CCN(CC)CCn1c2ccccc2c2nc(C)sc21

>  <Experimental Result>
96.5

$$$$
>  <Molecule>
C=CCn1c(SCC(=O)NC23CC4CC(CC(C4)C2)C3)nc(O)cc1=O

>  <Experimental Result>
108

$$$$
>  <Molecule>
COc1cc2c(cc1OC)-c1cc(Nc3ccc4c(c3)OCCO4)nc(=O)n1CC2

>  <Experimental Result>
82.5

$$$$
